Assay: Minimum exposure time for faultless reproduction of the 3% tonality on photopolymerizable printing plate (Table 7)
Settings: 2 parts photoinitiator; UV about 3,300 μW/cm^2
Procedure: 60 parts by weight of a 1:1:1 copolyamide consisting of PA-6, PA-6.6 and PA-6.13, 30 parts by weight of ethylene glycol bis-(N-methylolacrylamide) ether, 10 parts by weight of benzenesulfonic acid N-(n-butyl)-amide, 150 parts by weight of methanol, 20 parts by weight of water, 0.02 part by weight of a chromium complex dye (CI No. 12,195), 0.3 part by weight of potassium N-nitrosocyclohexylhydroxylamine and 2 parts by weight of the photoinitiator given in Table 7 were dissolved at about 70° C. […]
Attribute measured: Minimum exposure time required for reproducing the 3% tonality (s)
Give the value, in units of s, as a plain number.

Below: 3 compounds and their reported Minimum exposure time required for reproducing the 3% tonality.
Compound: Cc1cc(C)c(C(=O)P(=O)(O)c2ccccc2)c(C)c1 [Compound 14]
Measurement: 110

Compound: Cc1cc(C)c(C(=O)P(=O)([O-])c2ccccc2)c(C)c1.[Na+] [Compound 4]
Measurement: 115

Compound: Cc1cc(C)c(C(=O)P(=O)(c2ccccc2)c2ccccc2)c(C)c1 [V, reference compound]
Measurement: 190

Turning now to a further record.
According to the records, this compound COC(OC)(C(=O)c1ccccc1)c1ccccc1 [III, benzil dimethyl ketal, reference compound] displays Minimum exposure time required for reproducing the 3% tonality of 165

* * *

# Lookup of reported Shelf life keyed by entry
Experiment: Shelf life of UP resin C containing a photoinitiator, stored at 60° C. (Table 3)
Format: physicochemical
Conditions: 0.2% initiator, dark
Procedure: To test the shelf life, 6.6 ml of each of the UP resins A, B and C (cf. Example 5) with an initiator content of 0.2% were introduced into brown sample bottles, and the closed bottles were stored at 60° C. At intervals of about 12 hours, the bottles were turned to determine whether gel particles had formed. As a measure of the shelf life, Table 3 gives the maximum storage time at which gel particles were still not observed. […]
Give the number; h is assumed, so skip it.

Compound: Cc1cc(C)c(C(=O)P(=O)(OC(C)C)c2ccccc2)c(C)c1 (stereo not drawn) [II, reference compound]
Quantity unit: h
Measurement: 120

Compound: Cc1cc(C)c(C(=O)P(=O)(O)c2ccccc2)c(C)c1 [Compound 14]
Quantity unit: h
Measurement: 204

Compound: Cc1cc(C)c(C(=O)P(=O)(c2ccccc2)c2ccccc2)c(C)c1 [V, reference compound]
Quantity unit: h
Measurement: 120

Compound: COP(=O)(C(=O)c1c(C)cc(C)cc1C)c1ccccc1 (stereo not drawn) [I, reference compound]
Quantity unit: h
Measurement: 180

Compound: Cc1cc(C)c(C(=O)P(=O)(O)c2ccccc2)c(C)c1 [Compound 9]
Quantity unit: h
Measurement: 180

Turning now to a further record.
// Shelf life lookup, compound = Cc1cc(C)c(C(=O)P(=O)(O)c2ccccc2)c(C)c1 [Compound 11] , result: 204

* * *

Experiment: Hardening activity of UP resin C under UV light, temperature/time curve (Table 2)
Details: 0.2% compound
Reported values of maximum hardening temperature Tmax for individual entries

For orientation, consider the following solved cases.
Compound: COP(=O)(C(=O)c1c(C)cc(C)cc1C)c1ccccc1 (stereo not shown) [I, reference compound]
Measurement: 123 °C
//
Compound: Cc1cc(C)c(C(=O)P(=O)(OC(C)C)c2ccccc2)c(C)c1 (stereo not shown) [II, reference compound]
Measurement: 120 °C
//
Compound: Cc1cc(C)c(C(=O)P(=O)(O)c2ccccc2)c(C)c1 [Compound 12]
Measurement: 123 °C

Form field maximum hardening temperature Tmax, entry Cc1cc(C)c(C(=O)P(=O)(O)c2ccccc2)c(C)c1 [Compound 11] : 120 °C

Briefly, maximum hardening temperature Tmax measured for Cc1cc(C)c(C(=O)P(=O)([O-])c2ccccc2)c(C)c1.[Na+] : 122 °C

Measured maximum hardening temperature Tmax, Cc1cc(C)c(C(=O)P(=O)(O)c2ccccc2)c(C)c1 [Compound 13] : 121 °C

// recorded maximum hardening temperature Tmax for Cc1cc(C)c(C(=O)P(=O)(O)c2ccccc2)c(C)c1 [Compound 15] : 109 °C

maximum hardening temperature Tmax for Cc1cc(C)c(C(=O)P(=O)(O)c2ccccc2)c(C)c1 [Compound 14] is 123 °C

Lab book: maximum hardening temperature Tmax of Cc1cc(C)c(C(=O)P(=O)(O)c2ccccc2)c(C)c1 [Compound 9] noted as 129 °C

Measured maximum hardening temperature Tmax, COC(OC)(C(=O)c1ccccc1)c1ccccc1 [III, benzil dimethyl ketal, reference compound] : 122 °C

* * *

Assay: Hardening activity of UP resin A under UV light, temperature/time curve (Table 2)
Conditions: 0.2% compound
Attribute measured: hardening time HT 25°-Tmax

Compound: Cc1cc(C)c(C(=O)P(=O)(O)c2ccccc2)c(C)c1 [Compound 6]
hardening time HT 25°-Tmax: 5/53
--
Compound: Cc1cc(C)c(C(=O)P(=O)(O)c2ccccc2)c(C)c1 [Compound 8]
hardening time HT 25°-Tmax: 5/53
--
Compound: COP(=O)(C(=O)c1c(C)cc(C)cc1C)c1ccccc1 (stereo not shown) [I, reference compound]
hardening time HT 25°-Tmax: 7/45
--
Compound: Cc1cc(C)c(C(=O)P(=O)(O)c2ccccc2)c(C)c1 [Compound 14]
hardening time HT 25°-Tmax: 5/30
--
Compound: Cc1cc(C)c(C(=O)P(=O)(O)c2ccccc2)c(C)c1 [Compound 12]
hardening time HT 25°-Tmax: 6/15
--
Compound: Cc1cc(C)c(C(=O)P(=O)(O)c2ccccc2)c(C)c1 [Compound 16]
hardening time HT 25°-Tmax: 5/15
--
Compound: Cc1cc(C)c(C(=O)P(=O)(O)c2ccccc2)c(C)c1 [Compound 11]
hardening time HT 25°-Tmax: 5/23
--
Compound: Cc1cc(C)c(C(=O)P(=O)([O-])c2ccccc2)c(C)c1.[Na+] [Compound 4]
hardening time HT 25°-Tmax: 5/53
--
Compound: Cc1cc(C)c(C(=O)P(=O)(OC(C)C)c2ccccc2)c(C)c1 (stereo not shown) [II, reference compound]
hardening time HT 25°-Tmax: 6/45
--
Compound: Cc1cc(C)c(C(=O)P(=O)(O)c2ccccc2)c(C)c1 [Compound 17]
hardening time HT 25°-Tmax: 5/38

Entry Cc1cc(C)c(C(=O)P(=O)(O)c2ccccc2)c(C)c1 [Compound 5] — recorded hardening time HT 25°-Tmax = 5/38

Consider COP(=O)([O-])C(C)=O.[Na+] [IV, monosodium monomethylacetylphosphonate, reference compound] . Its measured hardening time HT 25°-Tmax is 13/15

* * *

Test: Hardening activity of UP resin C under UV light, temperature/time curve (Table 2)
Details: 0.2% compound
Overview of recorded hardening time HT 25°-Tmax for various compounds

Some solved cases for reference:
Compound: COC(OC)(C(=O)c1ccccc1)c1ccccc1 [III, benzil dimethyl ketal, reference compound]
hardening time HT 25°-Tmax: 8/30

Compound: Cc1cc(C)c(C(=O)P(=O)(O)c2ccccc2)c(C)c1 [Compound 9]
hardening time HT 25°-Tmax: 5/45

Compound: Cc1cc(C)c(C(=O)P(=O)(O)c2ccccc2)c(C)c1 [Compound 12]
hardening time HT 25°-Tmax: 5/23

Compound: COP(=O)(C(=O)c1c(C)cc(C)cc1C)c1ccccc1 (stereo not shown) [I, reference compound]
hardening time HT 25°-Tmax: 6/53

Could you now consider this next compound?
// hardening time HT 25°-Tmax value for Cc1cc(C)c(C(=O)P(=O)(O)c2ccccc2)c(C)c1 [Compound 14] : 5/38

* * *

Experiment: Shelf life of UP resin A containing a photoinitiator, stored at 60° C. (Table 3)
Format: physicochemical
Conditions: 0.2% initiator, dark
Attribute measured: Shelf life
Give me the value, and tack the unit on after it.

Known results for molecules:
Molecule: COP(=O)(C(=O)c1c(C)cc(C)cc1C)c1ccccc1 (stereo not drawn) [I, reference compound]
Shelf life: 180 h

Molecule: Cc1cc(C)c(C(=O)P(=O)(O)c2ccccc2)c(C)c1 [Compound 17]
Shelf life: 270 h

Molecule: Cc1cc(C)c(C(=O)P(=O)(O)c2ccccc2)c(C)c1 [Compound 11]
Shelf life: 180 h

Recorded Shelf life (molecule Cc1cc(C)c(C(=O)P(=O)(O)c2ccccc2)c(C)c1 [Compound 14] ): 180 h

Input Cc1cc(C)c(C(=O)P(=O)(O)c2ccccc2)c(C)c1 [Compound 9] . Output Shelf life: 180 h

Quick note, Shelf life for Cc1cc(C)c(C(=O)P(=O)(OC(C)C)c2ccccc2)c(C)c1 (stereo not drawn) [II, reference compound] landed at 140 h

What the record says about Cc1cc(C)c(C(=O)P(=O)(c2ccccc2)c2ccccc2)c(C)c1 [V, reference compound] : Shelf life is 140 h

response.value for Cc1cc(C)c(C(=O)P(=O)(O)c2ccccc2)c(C)c1 [Compound 18] (field: Shelf life) = 270 h

Query Cc1cc(C)c(C(=O)P(=O)([O-])c2ccccc2)c(C)c1.[Na+] yields Shelf life of 190 h
